System: Trypanosoma cruzi
PROCEDURE SUMMARY: Trypanosoma cruzi phosphomannomutase and mannose-1-phosphate guanylyltransferase assay
Format: functional
Design: scale not given: direction of the effect not stated beside the values
STATED CONDITIONS: 10 µM
Would you mind telling me the reported Percent Effect of each entry?
One number for each entry, in %.

COMPOUND | Percent Effect, %
Cc1cc(C)n(-c2cc(N3CCN(C(=O)C(C)(C)C)CC3)nc(C)n2)n1 | 2.04
CN(Cc1ccc2c(c1)OCCO2)C(=O)Cn1cccnc1=O | 3.41
CN(C)c1ncc(CN2CCOC(C(=O)Nc3ccccc3)C2)cn1 (centres undefined) | 2.36
Cc1cccc(-c2noc(CN3CCCC(Cn4cncn4)C3)n2)c1 (centres undefined) | 8.59
CC(C)c1nc(C2CCCN2Cc2ccccc2C#N)no1 (centres undefined) | 5.24

Batch request: Percent Effect per item, same order as input.
1. Cc1ccc(C(=O)NC(CN2CCCC2=O)c2ccccc2)c(=O)[nH]1 (centres undefined)
2. O=S(=O)(c1cccs1)N1CC[C@H](O)[C@@H]1Cc1ccncc1

stdout:
5.88
-4.79

---

Could you please report measured Percent Effect for the items listed next?
EXPERIMENTAL SYSTEM: Tyrosyl-tRNA synthetase, putative (Trypanosoma cruzi (strain CL Brener)) (UniProt Q4DSP6)
Sequence (Q4DSP6 as listed by the source): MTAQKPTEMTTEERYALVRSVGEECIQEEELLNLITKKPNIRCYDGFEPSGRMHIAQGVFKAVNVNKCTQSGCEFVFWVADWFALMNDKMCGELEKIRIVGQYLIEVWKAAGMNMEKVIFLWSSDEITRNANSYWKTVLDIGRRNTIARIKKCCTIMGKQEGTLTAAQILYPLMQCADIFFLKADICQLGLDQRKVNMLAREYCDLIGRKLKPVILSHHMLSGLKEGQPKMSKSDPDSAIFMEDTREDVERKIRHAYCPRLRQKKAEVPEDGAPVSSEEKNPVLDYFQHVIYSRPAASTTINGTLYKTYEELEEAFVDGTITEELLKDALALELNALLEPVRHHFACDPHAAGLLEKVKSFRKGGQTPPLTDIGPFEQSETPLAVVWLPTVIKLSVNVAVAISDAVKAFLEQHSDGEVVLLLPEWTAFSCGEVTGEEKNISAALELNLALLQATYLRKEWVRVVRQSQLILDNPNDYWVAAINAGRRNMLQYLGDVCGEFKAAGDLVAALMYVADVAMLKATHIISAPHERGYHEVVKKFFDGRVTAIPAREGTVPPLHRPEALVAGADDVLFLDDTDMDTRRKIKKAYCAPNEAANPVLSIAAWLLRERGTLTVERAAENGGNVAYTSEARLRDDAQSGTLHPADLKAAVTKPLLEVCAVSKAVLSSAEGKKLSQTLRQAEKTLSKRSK
PROCEDURE SUMMARY: Trypanosoma cruzi tyrosyl tRNA synthetase (TcYRS) _High Tyrosine SOP; note: in the data most compounds retested in dose-response had high values
Format: functional
Set-up: scale not given: direction of the effect not stated beside the values
STATED CONDITIONS: 30 µM
Give bare numbers, in %.

COMPOUND | EXPERIMENTAL SYSTEM | OBSERVABLE | VALUE MEASURED
CN1CCOC(CNC(=O)CCCOCCc2ccccc2)C1 (stereo unspecified) | Tyrosyl-tRNA synthetase, putative (Trypanosoma cruzi (strain CL Brener)) (UniProt Q4DSP6) | Percent Effect | 4.31

// for each compound in input: emit Percent Effect
1. COc1cccc2c1OCC(NC(=O)NC1CCN(C3CC3)CC1)C2 (stereo unspecified)
2. CC(C)c1ncncc1C(=O)NCCN1CCCS1(=O)=O
3. COc1ccccc1OCCN1CCCC(c2cc(C(N)=O)[nH]n2)C1 (stereo unspecified)
4. CCn1cnnc1C1CCN(C(=O)COCCc2ccccc2)CC1
5. CCCn1c(C)cc(C(=O)CN2C(=O)c3ccccc3CS2(=O)=O)c1C

stdout:
1: 6.38; 2: 1.44; 3: 2.63; 4: -2.86; 5: -10.1

---

EXPERIMENTAL SYSTEM: Proteasome subunit beta (Trypanosoma cruzi)
Sequence (whole entry): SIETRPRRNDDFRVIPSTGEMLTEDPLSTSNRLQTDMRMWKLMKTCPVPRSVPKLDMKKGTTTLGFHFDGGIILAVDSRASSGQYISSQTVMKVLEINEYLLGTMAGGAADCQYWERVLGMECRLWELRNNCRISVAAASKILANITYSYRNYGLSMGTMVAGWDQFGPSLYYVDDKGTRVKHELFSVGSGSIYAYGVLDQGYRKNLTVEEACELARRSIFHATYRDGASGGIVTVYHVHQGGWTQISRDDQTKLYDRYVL
PROCEDURE SUMMARY: Trypanosoma cruzi proteasome chymotrypsin-like activity (TcProtChymo) assay. Note: in the data most compounds retested in dose-response had high values.
Assay type: functional
Parameters: scale not given: direction of the effect not stated beside the values
STATED CONDITIONS: 9.37 µM
OBSERVABLE: Percent Effect (%)
Numbers only, in %.

Here is how some molecules turned out for Percent Effect.
MOLECULE | EXPERIMENTAL SYSTEM | Percent Effect, %
Cn1cccc1-c1cc(C(=O)N2CC(c3cccnc3)C2)[nH]n1 | Proteasome subunit beta (Trypanosoma cruzi) | 5.65
CCc1noc(C(C)N2CCN(c3ccc(C#N)cc3F)CC2)n1 (stereo not given) | Proteasome subunit beta (Trypanosoma cruzi) | 21.2
Cc1cc(C)n(CC2CCCN2CCc2ccncc2)n1 (stereo not given) | Proteasome subunit beta (Trypanosoma cruzi) | 17.1
Cn1cc(-c2csc(N3CCOCC3)n2)cn1 | Proteasome subunit beta (Trypanosoma cruzi) | 0.702
Cc1nc(C)n(CC2CN(Cc3cccc4c3OCCO4)CCO2)n1 (stereo not given) | Proteasome subunit beta (Trypanosoma cruzi) | 1.78

Would you mind giving Percent Effect for every molecule in the list below?
1. CCCNCc1cn(C)nc1-c1cccnc1
2. COCCO[C@H]1CCN(C(=O)c2cc(C)on2)[C@H]1Cc1ccccc1
3. Cc1cc(C)n(C2CCCN(C(=O)c3ccc(F)cc3F)C2)n1 (stereo not given)
4. Nc1nccc(NCc2cc3n(n2)CCCN(C(=O)C2CCC2)C3)n1
5. COc1ccc(C(C(=O)O)N2CCCN(C3CCCC3)CC2)cc1OC (stereo not given)
6. COCCN1CCN(Cc2cccc(C(=O)N(C)C)c2)CC1C (stereo not given)

stdout:
[11.8, 7.47, 7.02, 14.5, -0.429, 7.72]

Quick batch: Percent Effect for everything below.
1. c1cc(CNCC2OCCc3cn(CC4CCOCC4)nc32)ccn1 (stereo not given)
2. CN(C)C(=O)CN1C(=O)CCC12CCN(Cc1cccn1C)CC2
3. CC1CCCN(Cc2coc(-c3cccc(F)c3)n2)C1 (stereo not given)
4. CCNC(=O)NC(=O)CSC(C)c1ccccc1F (stereo not given)
5. CCOc1ccnc(N2CCN(C(=O)c3cn[nH]c3CC)CC2)n1
6. CCN(Cc1cccc2c1OCO2)C(=O)NC1CC1

stdout:
29
11.9
-0.507
11.3
-1.23
1.75

Parameter requested: Percent Effect. Apply to each item below.
1. CS(=O)(=O)c1ccc(C(O)CN2CCC(c3ccn[nH]3)CC2)cc1 (stereo not given)
2. O=C(Nc1cccc(CNCc2cccs2)c1)C1CCCC1
3. Cc1ncsc1C(=O)NC1CCN(CC(=O)N(C)c2ccccc2)CC1

stdout:
1. 5.32
2. 2.45
3. 3.3

List Percent Effect for every entry below, keeping the order given.
1. CC(=O)N1CCCN(C(=O)NCc2ccccn2)CC1
2. COCCC(=O)N1CCCC2(CCC(=O)N2CCOC)CC1 (stereo not given)
3. CC(C(=O)N1CCCN(c2ncccc2C#N)CC1)n1ccnc1 (stereo not given)
4. C[C@@H]1CN(C2(C(=O)N3CCOCC3)Cc3ccccc3C2)C[C@H](C)O1
5. COc1ncccc1NC(=O)C1CCN(S(C)(=O)=O)CC1

stdout:
1. 3.81
2. -1.97
3. 7.19
4. 8.6
5. 6.42
